# Protocol Description: Cellular Toxicity (caspase-3) Jurkat (AID 655);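 note: cells exposed to compound for 16 h at 37 °C before reading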
# Experimental Context: Jurkat caspase-3 activation, luminescence; at 92.2 µM (top of the series), DMSO = 0%, tamoxifen = 100%
# From the text: NIH Chemical Genomics Center [NCGC] NIH Molecular Libraries Screening Centers Network [MLSCN] National Institutes of Environmental Health Sciences [NIEHS] National Toxicology Program [NTP] We have developed a 1536-well cell-based assay for quantitative high throughput screening (qHTS) against a number of cell lines to determine in vitro caspase 3/7 of small molecules. […] 7. Detection; Luminescence; Viewlux plate reader […]
Records with an inconclusive call do not appear.
Parameter: caspase-3 activation (%)
Give bare numbers, in %.

Please report caspase-3 activation for every entry that follows.
1. O=C(O)c1ccccc1[N+](=O)[O-]
2. CC(O)CC(C)O (configuration not stated)
3. O=C1OC(=O)c2c(Br)c(Br)c(Br)c(Br)c21
4. c1ccc2n[nH]nc2c1

Marked response:
[-0.644, 0.345, -0.0657, 1.47]

Please report caspase-3 activation for every entry that follows.
1. Oc1cccc(Nc2ccccc2)c1
2. CC(C)=C1CCC(C)CC1=O (configuration not stated)
3. CCCC=O

Marked response:
1: 2.02; 2: -1.31; 3: -0.873

Please report caspase-3 activation for every entry that follows.
1. CC(C)c1ccccc1
2. CC(=O)c1ccc([N+](=O)[O-])cc1
3. C=Cc1ccccn1
4. N#CC1(O)CCCCC1
5. CC(C)(C)OC=O
6. Cc1cccc2ccccc12
7. OC/C(Br)=C(\Br)CO

Marked response:
[-0.787, 0.818, 0.756, 1.9, -1.27, -1.75, 3.75]

----------
# System: Peroxisome proliferator-activated receptor alpha (Homo sapiens)
# Protocol Description: qHTS assay for small molecule agonists of the peroxisome proliferator-activated receptor alpha (PPARalpha) signaling pathway (AID 651778); note: % of control where 0% means no effect
# Experimental Context: PathHunter PPARalpha complementation, chemiluminescence, 6 h; stronger effect = higher value
Please go through the items and note down their max response.
Answers are plain numbers, in %.

INSERT INTO measurements (compound, result_unit, result) VALUES
  ('ON=C1CCCCC1', '%', 1.6);

Please report max response for every entry that follows.
1. CC(C)c1ccccc1
2. N#Cc1ccccc1
3. Cc1ccc(CO)cc1
4. CCC(C)(C)C(=O)O
5. C/C(C=O)=C/c1ccccc1
6. NS(=O)(=O)O
7. CCN(C(=O)N(CC)c1ccccc1)c1ccccc1
8. Nc1ccc([N+](=O)[O-])c(N)c1

Marked response:
[3.38, -0.81, 4.64, -5.15, -3.84, -1.54, -4.39, -0.849]

----------
# Protocol Description: Cell Viability - N2a (AID 540);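 note: cells exposed to compound for 40 h at 37 °C; plate controls were DMSO alone for no effect and tamoxifen control for full effect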
# Experimental Context: N2a mouse neuroblastoma cell viability; at 92.2 µM (top of the series)
Records with an inconclusive call do not appear.
Please go through the items and note down their activity change, negative = cytotoxicity.
Give bare numbers, in %.

INSERT INTO results (compound, parameter, result_unit, result) VALUES
  ('C=CCCCCCC', 'activity change, negative = cytotoxicity', '%', 6.33),
  ('O=C(O)CCSSCCC(=O)O', 'activity change, negative = cytotoxicity', '%', 1.39);

Please report activity change, negative = cytotoxicity for every entry that follows.
1. O=C(O)c1ccccc1C(=O)O
2. CC(=O)c1cc(C)oc1C
3. O=Cc1ccc(C(=O)O)cc1
4. CC(C)(C)c1ccc(OCC2CO2)cc1 (stereo unspecified)
5. O=C(O)c1cccc([N+](=O)[O-])c1
6. CC(=O)CCc1ccccc1
7. CC(O)CC(C)O (stereo unspecified)
8. Cc1ccccc1C=O

Marked response:
1. 1.25
2. -1.61
3. -12.7
4. -14.9
5. -0.379
6. -2.11
7. -8.39
8. 2.15

Please report activity change, negative = cytotoxicity for every entry that follows.
1. O=C(O)CN(CC(=O)O)CC(=O)O
2. NS(=O)(=O)O
3. CC=O
4. CC(=O)C1(C)CC2=C(CCCC2(C)C)CC1C (stereo unspecified)

Marked response:
-5.01
-0.868
1.14
-8.12

Please report activity change, negative = cytotoxicity for every entry that follows.
1. CCOC(C)(C)C
2. CCCCCCCCCCCCC1CO1 (stereo unspecified)
3. CCCCCCCN
4. CC(C)Cc1nccs1
5. Cc1cccc(C(=O)O)c1[N+](=O)[O-]
6. ON=C1CCCCC1
7. Cc1cccc(C(=O)O)c1
8. O=C(O)CNC(=O)c1ccc(CO)o1

Marked response:
[-6.59, 6.57, -10.2, 2.65, 8.99, 0.317, -7, -13.4]
